folding stability dG overview
B1: EHEE_rd4_0726 (parent)
chain: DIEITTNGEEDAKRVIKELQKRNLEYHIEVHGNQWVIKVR

Variants of: B1
Experiment: folding stability dG (cDNA display proteolysis); higher = more stable
Conditions: PBS, room temperature
Number only, in kcal/mol; omit the unit.

[
  {
    "seq string": "DIEITTNGEEDWKRVIKELQKRNLEYHIEVHGNQWVIKVR [A12W]",
    "u": "kcal/mol",
    "folding stability dG": 1.51
  }
]

Qu. Would you mind telling me what folding stability dG value was observed for DIEITTNNEEDAKRVIKELQKRNLEYHIEVHGNQWVIKVR [G8N] ?
Ans. 3.23

Qu. Would you mind telling me what folding stability dG value was observed for DIEITTDGEEDAKRVIKELQKRNLEYHIEVHGNQWVIKVR [N7D] ?
Ans. 2.4

Qu. Would you mind telling me what folding stability dG value was observed for DIEITTNCEEDAKRVIKELQKRNLEYHIEVHGNQWVIKVR [G8C] ?
Ans. 2.33

Qu. Would you mind telling me what folding stability dG value was observed for DIEITTNGEEDKKRVIKELQKRNLEYHIEVHGNQWVIKVR [A12K] ?
Ans. 1.06
